Where these numbers come from: patent US20240360227A1

Biological target: Recombinant human his-tagged IGF R extracellular domain protein (human) (UniProt P08069)
Assay: SPR, Ab captured via anti-huIgG Fc, dissociation at pH 6
I'd appreciate it if you could supply kon values for the items below.
Express your answer as a number followed by its unit.

Task: Entry VRDN-02056 (antibody, V domains shown) VH: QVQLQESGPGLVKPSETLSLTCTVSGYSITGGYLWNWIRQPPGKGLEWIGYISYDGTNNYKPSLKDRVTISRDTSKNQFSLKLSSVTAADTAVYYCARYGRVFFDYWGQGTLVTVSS VL: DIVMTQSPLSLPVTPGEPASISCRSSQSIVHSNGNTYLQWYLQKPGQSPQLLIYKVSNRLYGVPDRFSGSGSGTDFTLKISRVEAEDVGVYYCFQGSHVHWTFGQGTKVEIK has what kon?
Result: 86000 M⁻¹ s⁻¹

Task: // kon lookup, key: VRDN-02055 (antibody, V domains shown) VH: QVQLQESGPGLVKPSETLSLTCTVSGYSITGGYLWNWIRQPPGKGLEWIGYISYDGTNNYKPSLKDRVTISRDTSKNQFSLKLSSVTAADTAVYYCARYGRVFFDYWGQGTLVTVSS VL: DIVMTQSPLSLPVTPGEPASISCRSSQSIVHSNGNTYLQWYLQKPGQSPQLLIYKVSNRLYGVPDRFSGSGSGTDFTLKISRVEAEDVGVYYCFQGSHHPWTFGQGTKVEIK
Result: 91800 M⁻¹ s⁻¹

Task: kon for VRDN-02041 (antibody, V domains shown) VH: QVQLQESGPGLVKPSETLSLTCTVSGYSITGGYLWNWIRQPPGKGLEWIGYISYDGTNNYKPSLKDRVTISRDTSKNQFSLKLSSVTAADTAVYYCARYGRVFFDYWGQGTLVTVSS VL: DIVMTQSPLSLPVTPGEPASISCRSSQSIVHSNGNTHLQWYLQKPGQSPQLLIYKVSNRLYGVPDRFSGSGSGTDFTLKISRVEAEDVGVYYCFQGSHVPWTFGQGTKVEIK ?
Result: 87800 M⁻¹ s⁻¹
